This collection of values is drawn from PubChem BioAssay AID624255.

assay: T. cruzi intracellular proliferation inhibitors, primary screen, cell-based, beta-gal Tulahuen parasites, NIH3T3 host, luminescence (AID 624255); details: T. cruzi beta-gal in NIH3T3, GalScreen luminescence, 90 h; at 8.34 µM
About 4,600 (6%) of roughly 77,000 compounds were called active. Another 1% or so got no clear call; they are omitted.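 Rule for the calls: active = mean inhibition above about 93%, with at least 55% of replicates each passing it (limit read from the data, passing the limit was not always enough); inconclusive = only one of those two conditions holds; inactive = neither condition holds.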 The list comes from a sample in which actives are over-represented; it also holds close analogues and randomly drawn compounds.
Possible outcomes: active, inactive

>  <COMPOUND STRUCTURE STRING>
C[C@@H]1CN([C@@H](C)CO)C(=O)CCCn2cc(nn2)CO[C@@H]1CN(C)S(=O)(=O)c1ccccc1F

>  <CLASS LABEL>
active

$$$$
>  <COMPOUND STRUCTURE STRING>
C[C@H](CO)N1C[C@H](C)[C@@H](CN(C)S(=O)(=O)c2ccccc2)Oc2ncc(C#Cc3ccccc3F)cc2C1=O

>  <CLASS LABEL>
active

$$$$
>  <COMPOUND STRUCTURE STRING>
C[C@H](CO)N1C[C@H](C)[C@H](CN(C)C(=O)C2CCOCC2)Oc2ncc(C#Cc3ccccc3F)cc2C1=O

>  <CLASS LABEL>
inactive

$$$$
>  <COMPOUND STRUCTURE STRING>
COc1ccc(C#Cc2cnc3c(c2)C(=O)N([C@H](C)CO)C[C@H](C)[C@H](CN(C)S(=O)(=O)c2ccc(F)cc2)O3)cc1OC

>  <CLASS LABEL>
inactive

$$$$
>  <COMPOUND STRUCTURE STRING>
C[C@H](CO)N1C[C@H](C)[C@@H](CN(C)S(=O)(=O)c2ccccc2F)Oc2ncc(C#Cc3ccccc3F)cc2C1=O

>  <CLASS LABEL>
active

$$$$
>  <COMPOUND STRUCTURE STRING>
Cc1ccccc1S(=O)(=O)N1CC[C@H]2[C@H](CO)Nc3ccc(-c4cccc(F)c4)cc3[C@H]21

>  <CLASS LABEL>
active

$$$$
>  <COMPOUND STRUCTURE STRING>
CCCNC(=O)N(C)C[C@H]1Oc2ncc(C#Cc3ccncc3)cc2C(=O)N([C@@H](C)CO)C[C@@H]1C

>  <CLASS LABEL>
inactive

$$$$
